tested on: HCT 116; assay: IC50 on cell viability, Cell Counting Kit-8; type: cell-based; conditions: Homo sapiens; code 6, HCT 116, Colorectal Carcinoma; cell viability 120 h after administration
endpoint: IC50 (µM)
Please respond with the number in µM and leave the unit unwritten.

Query (compound): O=c1c(O)c(-c2ccc(O)c(O)c2)oc2cc(O)cc(O)c12 ; field requested: IC50
56.9

Query (compound): COc1cc(/C=C/c2ccc(O)cc2)cc(OC)c1 [t-PTER, trans-3,5-dimethoxy-4′-hydroxystilbene] ; field requested: IC50
45.2

Query (compound): Oc1ccc(/C=C/c2cc(O)cc(O)c2)cc1 [RI, trans-3,5,4′-trihydroxystilbene, reference compound] ; field requested: IC50
31.4

* * *

test system: MML-1; assay: IC50 on cell viability, Cell Counting Kit-8; type: cell-based; settings: Homo sapiens; code 27, MML-1, Skin Melanoma; cell viability 120 h after administration
endpoint: pIC50
Scale: negative log10 of molar concentration, which is what pIC50 denotes.

Query (molecule): COc1cc(/C=C/c2ccc(O)cc2)cc(OC)c1 [t-PTER, trans-3,5-dimethoxy-4′-hydroxystilbene] ; field requested: pIC50
4.77

Query (molecule): O=c1c(O)c(-c2ccc(O)c(O)c2)oc2cc(O)cc(O)c12 ; field requested: pIC50
4.97

Query (molecule): Oc1ccc(/C=C/c2cc(O)cc(O)c2)cc1 [RI, trans-3,5,4′-trihydroxystilbene, reference compound] ; field requested: pIC50
4.99

* * *

tested on: SW-872; assay: IC50 on cell viability, Cell Counting Kit-8; format: cell-based; settings: Homo sapiens, SW872; code 18, SW-872, Connective tissue Fibrosarcoma; cell viability 120 h after administration
endpoint: IC50 (µM)
Please respond with the number in µM and leave the unit unwritten.

Query (compound): COc1cc(/C=C/c2ccc(O)cc2)cc(OC)c1 [t-PTER, trans-3,5-dimethoxy-4′-hydroxystilbene] ; field requested: IC50
25.8

Query (compound): Oc1ccc(/C=C/c2cc(O)cc(O)c2)cc1 [RI, trans-3,5,4′-trihydroxystilbene, reference compound] ; field requested: IC50
81.1

Query (compound): O=c1c(O)c(-c2ccc(O)c(O)c2)oc2cc(O)cc(O)c12 [QUER, quercetin] ; field requested: IC50
3.51

* * *

tested on: T-47D; experiment: IC50 on cell viability, Cell Counting Kit-8; format: cell-based; settings: Homo sapiens, T47D; code 4, T-47D, Breast Carcinoma; cell viability 120 h after administration
Field: IC50. Provide a value for each of the molecules that follow.
Please respond with the number in µM and leave the unit unwritten.

Query (molecule): Oc1ccc(/C=C/c2cc(O)cc(O)c2)cc1 [RI, trans-3,5,4′-trihydroxystilbene, reference compound] ; field requested: IC50
25.6

Query (molecule): O=c1c(O)c(-c2ccc(O)c(O)c2)oc2cc(O)cc(O)c12 [QUER, quercetin] ; field requested: IC50
10.7

Query (molecule): COc1cc(/C=C/c2ccc(O)cc2)cc(OC)c1 [t-PTER, trans-3,5-dimethoxy-4′-hydroxystilbene] ; field requested: IC50
35
